assay: Human HepG2 cell viability assay in 384 well format; format: toxicity, cell-based; set-up: dose 125 nL, time 70.5 hour; concentration not given beside the values; settings: HepG2 cells, read-out: Inhibition
# cytotoxicity at 70.5 h per entry

| molecule | cytotoxicity at 70.5 h [%] |
| --- | --- |
| Cc1cnn(CCNCc2ccc(C#N)cc2)c1 | -1.47 |
| CC(C)N1CCC(CC(=O)NC(C(=O)O)c2cccc(F)c2)CC1 (configuration not stated) | -5.14 |
| CC(=O)c1c(C)nn(S(=O)(=O)c2ccccc2)c1C | 3.79 |
| COc1ccccc1CN1CCCC(Cc2nccnc2N)C1 (configuration not stated) | -8.24 |
| CC(=O)NCC1CCN(c2ccnc3ccc(Br)cc23)CC1 | -2.63 |
| Cc1nc(O)c2nnn(C[C@H]3CCCN3C(=O)c3cccs3)c2n1 | -7.34 |
| Cc1cc(C)cc(N2CCN(Cc3cccc(CCN)c3)CC2=O)c1 | -2.46 |
| NC(=O)CS(=O)(=O)Cc1csc(-c2ccccc2)n1 | -4.61 |
| COCc1cc(O)nc(C2CCCN(Cc3cc(OC)ccc3F)C2)n1 (configuration not stated) | -4.84 |
| O=S(=O)(CCNCCn1cccn1)c1ccccc1 | -18.7 |
| Cc1csc(CN(C)C(=O)Nc2cc(F)cc(N3CCCC3)c2)n1 | -11.9 |
| CN1CCN(c2cc(Sc3cccs3)nc(N)n2)CC1CCO (configuration not stated) | -7.97 |
